Test system: C33A
Assay: Primary qHTS to identify gynecologic anti-cancer compounds using libraries of approved drugs and bioactive compounds (AID 1345084); further: nearly all actives have a fitted effect of over 55% in size; further: potency means the concentration at half of the fitted maximal effect
Conditions: Gynecologic cancer cell panel viability, ATPlite luminescence, 48 h; series mostly up to 57.5 µM
Records with an inconclusive call do not appear. The source made the active and inactive calls. The call rests on the fitted dose curve; in most records, active means well fitted cell-killing curve with a large enough effect; inconclusive means small, poorly fitted or top-dose-only effect, or effect the other way; inactive means flat fitted curve, though single readings scatter.
Readout type: Potency

Here are 4 compounds together with their reported answers.
# Compound, Readout type, Result
rows = [
    ("CC(=O)Nc1sc2c(c1-c1nc3ccccc3s1)CNC2", "Potency", "inactive"),
    ("C1Cc2[nH]nc(-c3nn[nH]n3)c2C1", "Potency", "inactive"),
    ("CC(C)c1cnn2c(NCc3ccccc3)cc(N[C@@H](CO)[C@H](O)CO)nc12", "Potency", "7.08 µM (active)"),
    ("CNC(=O)c1c(F)cccc1Nc1nc(Nc2cc3c(cc2OC)CCN3C(=O)CN(C)C)nc2[nH]ccc12", "Potency", "inactive"),
]

Each of the following entries comes with a recorded value; kindly state Potency for each.
1. COc1cc2c(cc1-c1c(C)noc1C)ncc1[nH]c(=O)n([C@H](C)c3ccccn3)c12
2. O=C(O)C1(Cc2cccc(Nc3nccs3)n2)CCC(Oc2cccc(Cl)c2F)CC1 (stereo not given)
3. CN1CCC(CNc2ccc3ncc(-c4cccc(OC(F)(F)F)c4)n3n2)CC1
4. Cc1coc2c1C(=O)C(=O)c1c-2ccc2c1CCCC2(C)C

OUT:
1. inactive
2. inactive
3. inactive
4. inactive

# return Potency for each item in the list
1. Cc1cn2cc(C(=O)N(C)CCO)cc(N[C@@H]3CCOc4cccc(C)c43)c2n1
2. N#Cc1c(O)c2c(-c3ccc(-c4ccccc4O)cc3)csc2[nH]c1=O
3. Cc1cc(Nc2cc(CN3CCOCC3)c3nc(C)c(Cc4ccc(Cl)cc4F)n3n2)n[nH]1
4. COc1ccc(F)c(F)c1C(=O)c1cnc(NC2CCN(S(C)(=O)=O)CC2)nc1N
5. OCc1ccc(-c2ccc(-c3ccc(CO)s3)o2)s1

OUT:
1: inactive; 2: inactive; 3: inactive; 4: 10 µM (active); 5: inactive

# per-item lookup of Potency; items listed below
1. CCCNC(=O)Nc1ccc(Oc2ncnc3cc(OC)c(OC)cc23)cc1Cl
2. COc1ccc(-n2nc(C(N)=O)c3c2C(=O)N(c2ccc(N4CCCCC4=O)cc2)CC3)cc1
3. O=c1c2ccccc2nc2n1CCc1c-2[nH]c2ccccc12
4. C[C@@H](Oc1cc(-c2cnn(C3CCNCC3)c2)cnc1N)c1c(Cl)ccc(F)c1Cl

OUT:
1: inactive; 2: inactive; 3: inactive; 4: 20 µM (active)

Would you mind giving Potency for every compound in the list below?
1. Cc1ccc(NC(=O)C2(c3ccc4c(c3)OC(F)(F)O4)CC2)nc1-c1cccc(C(=O)O)c1
2. Clc1cccc(-n2nnnc2NCc2ccccc2Oc2ccccn2)c1Cl
3. COc1cccc2c(NCc3ccccc3)nc(-n3c(N)nc4ccccc43)nc12

OUT:
1: inactive; 2: inactive; 3: 28.2 µM (active)
